The values you see were collected from patent US11807835B2.

Exercise: for every item that follows, state its recorded Relative Lipase Enzyme Activity.
system: lipase; test: Lipase activity retention in detergent use solution (4000 ppm, 5 GPG water; p-nitrophenyl valerate, TRIS buffer pH 8.0); assay type: biochemical; settings: base formula, phosphonate 0.6 wt-%, use solution at 120º F., time 60 min
Please reply with the bare figure in % and do not write the unit itself.

// lookup Relative Lipase Enzyme Activity for O=P(O)(O)CN(CP(=O)(O)O)CP(=O)(O)O 56.12

// lookup Relative Lipase Enzyme Activity for CC(O)(P(=O)(O)O)P(=O)(O)O 23.22

// lookup Relative Lipase Enzyme Activity for NCP(=O)(O)O 26.82

// lookup Relative Lipase Enzyme Activity for O=C(O)CCC(CC(=O)O)(C(=O)O)P(=O)(O)O (stereo not shown) 23.30

----------
Exercise: for every item that follows, state its recorded Relative Amylase Enzyme Activity.
test system: amylase; test: Amylase activity retention in detergent use solution (4000 ppm, 5 GPG water; ethylidene substrate EPS, HEPES buffer pH 8.0); assay type: biochemical; conditions: base formula, phosphonate 0.3 wt-%, use solution at 120° F., time 240 min
Please reply with the bare figure in % and do not write the unit itself.

Item CC(O)(P(=O)(O)O)P(=O)(O)O with amylase - Relative Amylase Enzyme Activity? 88.63

Item O=C(O)CCC(CC(=O)O)(C(=O)O)P(=O)(O)O (stereo not shown) with amylase - Relative Amylase Enzyme Activity? 81.88

Item NCP(=O)(O)O with amylase - Relative Amylase Enzyme Activity? 102.93

Item O=P(O)(O)CN(CP(=O)(O)O)CP(=O)(O)O with amylase - Relative Amylase Enzyme Activity? 96.54

----------
test system: protease; experiment: Protease activity retention in detergent use solution (4000 ppm, 5 GPG water; peptidyl substrate, glycine buffer pH 9.0); format: biochemical; details: base formula, phosphonate 0.6 wt-%, use solution at 120° F., time 20 min
PARAMETER: Relative Protease Enzyme Activity (%)
Please reply with the bare figure in % and do not write the unit itself.

// lookup Relative Protease Enzyme Activity for CC(O)(P(=O)(O)O)P(=O)(O)O [HEDP] 27.67

// lookup Relative Protease Enzyme Activity for NCP(=O)(O)O [AMPA, Aminomethyl phosphonic acid] 84.97

// lookup Relative Protease Enzyme Activity for O=P(O)(O)CN(CP(=O)(O)O)CP(=O)(O)O [ATMP, Aminotri (methylene phosphonic acid)] 100.03

// lookup Relative Protease Enzyme Activity for O=C(O)CCC(CC(=O)O)(C(=O)O)P(=O)(O)O (stereo not shown) [PBTC, Phosphonebutane tricarboxylic acid] 16.27

----------
System: protease
Test: Protease activity retention in detergent use solution (4000 ppm, 5 GPG water; peptidyl substrate, glycine buffer pH 9.0)
Type: biochemical
Conditions: base formula, phosphonate at 0.1% elemental phosphorus, use solution at 120° F., time 150 min
Experimental: The enzyme activities in the detergents with different phosphonate levels were tested at 4000 ppm in 5 grains per gallon (GPG) water at 120° F. with various time points collected up to 4 hours, after a use solution was generated from the detergent composition. During the tests, the samples at different time points were collected and immediately frozen in an acetone/dry ice bath and stored in −80° C. before the activity of the enzyme was evaluated. […]
Exercise: for every item that follows, state its recorded Relative Protease Enzyme Activity.

// lookup Relative Protease Enzyme Activity for NCP(=O)(O)O [AMPA, Aminomethyl phosphonic acid] 38.26%

// lookup Relative Protease Enzyme Activity for O=C(O)CCC(CC(=O)O)(C(=O)O)P(=O)(O)O (stereo not shown) [PBTC, Phosphonebutane tricarboxylic acid] 1.54%

// lookup Relative Protease Enzyme Activity for O=P(O)(O)CN(CP(=O)(O)O)CP(=O)(O)O [ATMP, Aminotri (methylene phosphonic acid)] 96.80%

// lookup Relative Protease Enzyme Activity for CC(O)(P(=O)(O)O)P(=O)(O)O [HEDP] 1.45%
